Experiment: In vivo biodistribution in mice
Design: species or system normal CD-1 male mice
Settings: iv, 2 min
For each of the molecules below, state its bone to blood ratio.

Use the examples below as a reference point.
MOLECULE	MEASUREMENT KIND	RESULT
O=C([O-])CN(CCN(CC(=O)[O-])Cc1cc(CCC(=O)NC(P(=O)(O)O)P(=O)(O)O)ccc1[O-])Cc1cc(CCC(=O)NCC(=O)O)ccc1[O-].[68Ga+3] [[^68Ga]1c]	bone to blood ratio	0.7
O=C([O-])CN(CCN(CC(=O)[O-])Cc1cc(CCC(=O)NC(P(=O)(O)O)P(=O)(O)O)ccc1[O-])Cc1cc(CCC(=O)O)ccc1[O-].[68Ga+3] [[^68Ga]1a]	bone to blood ratio	0.9

Note: attention shifts to another entry.
Check the records and state bone to blood ratio for O=C(O)CN1CCN(CC(=O)O)CCN(CC(=O)NC(P(=O)(O)O)P(=O)(O)O)CCN(CC(=O)O)CC1.[68Ga] [[^68Ga]BPAMD, reference compound]
0.8

* * *

Test: In vivo biodistribution in mice
Design: species or system normal CD-1 male mice
Conditions: iv, 60 min (1 hr) post injection
MEASUREMENT KIND: Biodistribution: Liver (% dose/g)
One number for each entry, in % dose/g.

Use the examples below as a reference point.
COMPOUND	MEASUREMENT KIND	UNIT SYMBOL	QUANTITATIVE RESULT
C[C@H](NC(=O)CCc1ccc([O-])c(CN(CCN(CC(=O)[O-])Cc2cc(CCC(=O)NC(P(=O)(O)O)P(=O)(O)O)ccc2[O-])CC(=O)[O-])c1)C(=O)O.[68Ga+3] [[^68Ga]1d]	Biodistribution: Liver	% dose/g	0.12
O=C([O-])CN(CCN(CC(=O)[O-])Cc1cc(CCC(=O)NC(P(=O)(O)O)P(=O)(O)O)ccc1[O-])Cc1cc(CCC(=O)NCC(=O)O)ccc1[O-].[68Ga+3] [[^68Ga]1c]	Biodistribution: Liver	% dose/g	1.85
O=C([O-])CN(CCN(CC(=O)[O-])Cc1cc(CCC(=O)O)ccc1[O-])Cc1cc(CCC(=O)O)ccc1[O-].[68Ga+3] [[^68Ga]HBED-CC, reference compound]	Biodistribution: Liver	% dose/g	0.11
O=C([O-])CN(CCN(CC(=O)[O-])Cc1cc(CCC(=O)N[C@@H](CCC(=O)O)C(=O)O)ccc1[O-])Cc1cc(CCC(=O)NC(P(=O)(O)O)P(=O)(O)O)ccc1[O-].[68Ga+3] [[^68Ga]1f]	Biodistribution: Liver	% dose/g	0.20
[18F-].[Na+] [[^18F]NaF, reference compound]	Biodistribution: Liver	% dose/g	0.13

Give Biodistribution: Liver for all compounds that follow.
1. O=C([O-])CN(CCN(CC(=O)[O-])Cc1cc(CCC(=O)N[C@@H](CC(=O)O)C(=O)O)ccc1[O-])Cc1cc(CCC(=O)NC(P(=O)(O)O)P(=O)(O)O)ccc1[O-].[68Ga+3] [[^68Ga]1e]
2. O=C([O-])CN1CCN(CC(=O)[O-])CCN(CC(=O)NCCNC(=O)CCc2ccc(O)c(CN(CCN(CC(=O)O)Cc3cc(CCC(=O)NC(P(=O)(O)O)P(=O)(O)O)ccc3O)CC(=O)O)c2)CCN(CC(=O)[O-])CC1.[177Lu+3] [[^177Lu]1h]

1. 0.14
2. 0.13

* * *

Assay: In vivo biodistribution in mice
Design: species or system normal CD-1 male mice
Conditions: iv, 120 min post injection
Procedure: Biodistribution experiments were performed by intravenously administering ^68Ga labeled 1a-h, 2, 3, BPAMD, and [^18F]NaF into normal, healthy male CD-1 mice (25-30 g). The injection activity was 20-30 μCi/animal. […] Organs of interest were harvested, weighed, and counts of radioactivity were measured by a gamma counter. The biodistribution of each sample was calculated as a percentage of the injected dose per gram of wet tissue weight (% ID/g). […]
For each of the compounds below, state its Biodistribution: Bone.
One number for each entry, in % dose/g.

COMPOUND	QUANTITATIVE RESULT
[18F-].[Na+] [[^18F]NaF, reference compound]	25.2
C[C@H](NC(=O)CCc1ccc([O-])c(CN(CCN(CC(=O)[O-])Cc2cc(CCC(=O)NC(P(=O)(O)O)P(=O)(O)O)ccc2[O-])CC(=O)[O-])c1)C(=O)O.[68Ga+3] [[^68Ga]1d]	17.0
O=C([O-])CN(CCN(CC(=O)[O-])Cc1cc(CCC(=O)NC(P(=O)(O)O)P(=O)(O)O)ccc1[O-])Cc1cc(CCC(=O)NC2C(O)OC(CO)C(O)C2O)ccc1[O-].[68Ga+3] (centres unmarked) [[^68Ga]1b]	17.1
O=C([O-])CN(CCN(CC(=O)[O-])Cc1cc(CCC(=O)O)ccc1[O-])Cc1cc(CCC(=O)O)ccc1[O-].[68Ga+3] [[^68Ga]HBED-CC, reference compound]	0.18

Check the records and state Biodistribution: Bone for O=C([O-])CN(CCN(CC(=O)[O-])Cc1cc(CCC(=O)NC(P(=O)(O)O)P(=O)(O)O)ccc1[O-])Cc1cc(CCC(=O)NC(P(=O)(O)O)P(=O)(O)O)ccc1[O-].[68Ga+3] [[^68Ga]2]
23.9

* * *

For each of the molecules below, state its Hydroxyapatite Binding (%).
Assay: In vitro binding to hydroxyapatite
Conditions: 20 mg hydroxyapatite in saline, 10 min at room temperature
Answers are plain numbers, in %.

MOLECULE	Hydroxyapatite Binding (%)
O=C([O-])CN1CCN(CC(=O)[O-])CCN(CC(=O)NCCNC(=O)CCc2ccc(O)c(CN(CCN(CC(=O)O)Cc3cc(CCC(=O)NC(P(=O)(O)O)P(=O)(O)O)ccc3O)CC(=O)O)c2)CCN(CC(=O)[O-])CC1.[177Lu+3] [[^177Lu]1h]	90.9

Check the records and state Hydroxyapatite Binding (%) for O=C([O-])CN(CCN(CC(=O)[O-])Cc1cc(CCC(=O)NC(P(=O)(O)O)P(=O)(O)O)ccc1[O-])Cc1cc(CCC(=O)NC(P(=O)(O)O)P(=O)(O)O)ccc1[O-].[68Ga+3] [[^68Ga]2]
90.8

* * *

Experiment: In vivo biodistribution in mice
Set-up: species or system normal CD-1 male mice
Details: iv, 30 min (0.5 hr) post injection
Could you mark each record True if its Biodistribution: Pancreas falls strictly under 0.4 % dose/g, and False if it equals or exceeds it?

Recorded results for 7 molecules are shown here.
MOLECULE	CLASS NAME
O=C(O)CN1CCN(CC(=O)O)CCN(CC(=O)NC(P(=O)(O)O)P(=O)(O)O)CCN(CC(=O)O)CC1.[68Ga] [[^68Ga]BPAMD, reference compound]	True
O=C([O-])CN(CCN(CC(=O)[O-])Cc1cc(CCC(=O)NC(P(=O)(O)O)P(=O)(O)O)ccc1[O-])Cc1cc(CCC(=O)NC2C(O)OC(CO)C(O)C2O)ccc1[O-].[68Ga+3] (centres unmarked) [[^68Ga]1b]	True
[18F-].[Na+] [[^18F]NaF, reference compound]	False
O=C([O-])CN(CCN(CC(=O)[O-])Cc1cc(CCC(=O)NC(P(=O)(O)O)P(=O)(O)O)ccc1[O-])Cc1cc(CCC(=O)NC(P(=O)(O)O)P(=O)(O)O)ccc1[O-].[68Ga+3] [[^68Ga]2]	True
C[C@H](NC(=O)CCc1ccc([O-])c(CN(CCN(CC(=O)[O-])Cc2cc(CCC(=O)NC(P(=O)(O)O)P(=O)(O)O)ccc2[O-])CC(=O)[O-])c1)C(=O)O.[68Ga+3] [[^68Ga]1d]	True
O=C([O-])CN(CCN(CC(=O)[O-])Cc1cc(CCC(=O)N[C@@H](CC(=O)O)C(=O)O)ccc1[O-])Cc1cc(CCC(=O)NC(P(=O)(O)O)P(=O)(O)O)ccc1[O-].[68Ga+3] [[^68Ga]1e]	True
O=C([O-])CN(CCN(CC(=O)[O-])Cc1cc(CCC(=O)NC(P(=O)(O)O)P(=O)(O)O)ccc1[O-])Cc1cc(CCC(=O)NCCCNC(=O)CCc2ccc(O)c(CN(CCN(CC(=O)O)Cc3cc(CCC(=O)NC(P(=O)(O)O)P(=O)(O)O)ccc3O)CC(=O)O)c2)ccc1[O-].[68Ga+3] [[^68Ga]3]	False

--- query ---
Problem: For the molecule O=C([O-])CN(CCN(CC(=O)[O-])Cc1cc(CCC(=O)NC(P(=O)(O)O)P(=O)(O)O)ccc1[O-])Cc1cc(CCC(=O)NCCCCCC(=O)NCCCC[C@H](NC(=O)N[C@@H](CCC(=O)O)C(=O)O)C(=O)O)ccc1[O-].[68Ga+3] [[^68Ga]1g] , is Biodistribution: Pancreas under 0.4 % dose/g?
False

* * *

Experiment: In vivo biodistribution in mice
Design: species or system normal CD-1 male mice
Conditions: iv, 120 min post injection
Procedure: Biodistribution experiments were performed by intravenously administering ^68Ga labeled 1a-h, 2, 3, BPAMD, and [^18F]NaF into normal, healthy male CD-1 mice (25-30 g). The injection activity was 20-30 μCi/animal. […] Organs of interest were harvested, weighed, and counts of radioactivity were measured by a gamma counter. The biodistribution of each sample was calculated as a percentage of the injected dose per gram of wet tissue weight (% ID/g). […]
MEASUREMENT KIND: Biodistribution: Muscle (% dose/g)
One number for each entry, in % dose/g.

Use the examples below as a reference point.
COMPOUND	UNIT SYMBOL	QUANTITATIVE RESULT
O=C([O-])CN(CCN(CC(=O)[O-])Cc1cc(CCC(=O)NC(P(=O)(O)O)P(=O)(O)O)ccc1[O-])Cc1cc(CCC(=O)NCCNC(=O)CN2CCN(CC(=O)O)CCN(CC(=O)O)CCN(CC(=O)O)CC2)ccc1[O-].[68Ga+3] [[^68Ga]1h]	% dose/g	0.03
O=C([O-])CN(CCN(CC(=O)[O-])Cc1cc(CCC(=O)NC(P(=O)(O)O)P(=O)(O)O)ccc1[O-])Cc1cc(CCC(=O)NCCCCCC(=O)NCCCC[C@H](NC(=O)N[C@@H](CCC(=O)O)C(=O)O)C(=O)O)ccc1[O-].[68Ga+3] [[^68Ga]1g]	% dose/g	0.17
O=C(O)CN1CCN(CC(=O)O)CCN(CC(=O)NC(P(=O)(O)O)P(=O)(O)O)CCN(CC(=O)O)CC1.[68Ga] [[^68Ga]BPAMD, reference compound]	% dose/g	0.29

Give Biodistribution: Muscle for all compounds that follow.
1. O=C([O-])CN(CCN(CC(=O)[O-])Cc1cc(CCC(=O)NC(P(=O)(O)O)P(=O)(O)O)ccc1[O-])Cc1cc(CCC(=O)NCC(=O)O)ccc1[O-].[68Ga+3] [[^68Ga]1c]
2. O=C([O-])CN(CCN(CC(=O)[O-])Cc1cc(CCC(=O)N[C@@H](CC(=O)O)C(=O)O)ccc1[O-])Cc1cc(CCC(=O)NC(P(=O)(O)O)P(=O)(O)O)ccc1[O-].[68Ga+3] [[^68Ga]1e]
3. O=C([O-])CN(CCN(CC(=O)[O-])Cc1cc(CCC(=O)N[C@@H](CCC(=O)O)C(=O)O)ccc1[O-])Cc1cc(CCC(=O)NC(P(=O)(O)O)P(=O)(O)O)ccc1[O-].[68Ga+3] [[^68Ga]1f]
4. O=C([O-])CN(CCN(CC(=O)[O-])Cc1cc(CCC(=O)NC(P(=O)(O)O)P(=O)(O)O)ccc1[O-])Cc1cc(CCC(=O)NCCCNC(=O)CCc2ccc(O)c(CN(CCN(CC(=O)O)Cc3cc(CCC(=O)NC(P(=O)(O)O)P(=O)(O)O)ccc3O)CC(=O)O)c2)ccc1[O-].[68Ga+3] [[^68Ga]3]

1: 0.16; 2: 0.04; 3: 0.04; 4: 0.28

Give Biodistribution: Muscle for all compounds that follow.
1. O=C([O-])CN(CCN(CC(=O)[O-])Cc1cc(CCC(=O)O)ccc1[O-])Cc1cc(CCC(=O)O)ccc1[O-].[68Ga+3] [[^68Ga]HBED-CC, reference compound]
2. O=C([O-])CN(CCN(CC(=O)[O-])Cc1cc(CCC(=O)NC(P(=O)(O)O)P(=O)(O)O)ccc1[O-])Cc1cc(CCC(=O)NC2C(O)OC(CO)C(O)C2O)ccc1[O-].[68Ga+3] (stereo not drawn) [[^68Ga]1b]

1. 0.05
2. 0.09
